System: HCT-116
ASSAY_METHOD_TEXT: NCI tumour cell line growth inhibition, 48 h
The source made the active and inactive calls. Cut-off read from the data, not from the text of the source: active = GI50 up to about 1.1 µM and inactive = higher.
RECORDED_METRIC: GI50

>>> measured_value("CCOC(=O)c1ccc(/N=C2\\SC(=S)N(c3ccc(F)cc3)\\C2=N/c2ccc(C(=O)OCC)cc2)cc1")
"14.2 µM (inactive)"

Any idea what GI50 was measured for "CC(=O)N1C(=O)c2cc3ccccc3cc21" ?
61.4 µM (inactive)

Any idea what GI50 was measured for "Cc1[nH]c2ccccc2c1CC/C(=N\Nc1ccccc1)c1ccccc1" ?
> 100 µM (inactive)

Any idea what GI50 was measured for O=C1/C(=C/c2cccs2)NC(=S)N1CN1CCCC(CO)C1 (stereo unspecified) ?
> 100 µM (inactive)

Any idea what GI50 was measured for CC(=O)c1ccc(NC(=O)C(=O)C(C#N)CC(C)(C)C=O)cc1 (stereo unspecified) ?
> 100 µM (inactive)

Any idea what GI50 was measured for "CN(C)c1ccc(/C=C/C(=O)O)cc1" ?
> 100 µM (inactive)

Any idea what GI50 was measured for "COC(=O)[C@H](C)NC(=O)C1(CNC(=O)[C@H](C)NC(=O)OC(C)(C)C)Cc2ccccc2-c2ccccc2C1" ?
33.8 µM (inactive)

Any idea what GI50 was measured for "CO/C(=N\N=C\c1cccc(Cl)c1)c1ccncc1" ?
> 10 µM (inactive)

Any idea what GI50 was measured for "Nn1c(Sc2nc3ccccc3c(=O)n2N)nc2ccccc2c1=O" ?
2.99 µM (inactive)

Any idea what GI50 was measured for "COc1ccc(/C=C(\C#N)c2nc(N)nc(N3N=C(C)CC3(C)C)n2)c(O)c1" ?
17.6 µM (inactive)

Any idea what GI50 was measured for Cc1c(-c2ccc(-c3ccccc3F)cc2)nc2ccc(F)cc2c1C(=O)O [BREQUINAR SODIUM] ?
0.104 µM (active)

###

Test system: DU-145
ASSAY_METHOD_TEXT: NCI tumour cell line growth inhibition, 48 h
Active and inactive are the calls of the source. Rule as the data show it: active = GI50 up to about 1.1 µM and inactive = higher.
Respond with a class label; see active, inactive

Worked cases, answers included:
>>> group("Cc1ccc(C)c(C2NC(=O)c3ccccc3N2)c1 (stereo not given)")
"inactive"
>>> group("Oc1c(CN2CCOCC2)ccc(CN2CCOCC2)c1O")
"inactive"
>>> group("Cc1ccc(C2(c3ccc(Cl)cc3)c3ccccc3C3=NCCN32)cc1 (stereo not given)")
"inactive"
>>> group("Cc1c(C)c2c(c(N)c1C#N)C(=O)N(NC(=S)Nc1ccccc1)C2=O")
"inactive"
>>> group("O=S(=O)(NC1OCCCC1I)c1ccccc1 (stereo not given)")
"inactive"
>>> group("CC(C)(C)c1ccc(O)c(CN(Cc2cc(C(C)(C)C)ccc2O)c2ccccc2)c1")
"inactive"
>>> group("CCOC(=O)/C(=C\\c1cn(C(C)=O)c2ccccc12)P(C)(=O)OCC (stereo not given)")
"inactive"
>>> group("O[C@]12C=C(c3nccc4c3[nH]c3ccccc34)[C@@H]3CCN(CCCC/C=C\\CC1)C[C@@]31CC3/C=C\\CCCCN3[C@H]12 (stereo not given in full)")
"active"

What call does the record list for "Cc1[nH]n(-c2nc(-c3ccccc3)cc(=O)[nH]2)c(=O)c1CCO" ?
inactive

What call does the record list for "C/C1=C/C(=O)O[C@@H]2C[C@@H](CC[C@H](C)/C=C\C=C\CC1)O[C@@](O)([C@@H]1CSC(=O)N1)C2" ?
inactive

###

Tested on: CCRF-CEM
ASSAY_METHOD_TEXT: NCI tumour cell line growth inhibition, 48 h
The source made the active and inactive calls. Cut-off read from the data, not from the text of the source: active = GI50 up to about 1.1 µM and inactive = higher.
RECORDED_METRIC: GI50

Some compounds with recorded GI50:
>>> measured_value("CC1OC(O)CC(N(C)C)C1O.CC1OC(O)CCC1O.CCC1CC(O)c2c(O)c3c(c(O)c2C1O)C(=O)c1cccc(O)c1C3=O (stereo unspecified)")
"0.0223 µM (active)"
>>> measured_value("O=C1CSC(Cc2nc3ccccc3[nH]2)=N1")
"6.4 µM (inactive)"
>>> measured_value("Cc1ccc(Nc2nc(NNC(=O)Cc3ccccc3)nc(NNC(=O)c3ccncc3)n2)cc1")
"> 10 µM (inactive)"

Any idea what GI50 was measured for "COc1ccc(OC)c(NCC#N)c1" ?
> 100 µM (inactive)

Any idea what GI50 was measured for "C[N+]1(C)C2Cc3ccccc3C1Cc1ccccc12" ?
> 100 µM (inactive)

Any idea what GI50 was measured for "O=C1c2ccccc2C(=O)N1CC1S(=O)(=O)OCCOS1(=O)=O" ?
> 100 µM (inactive)

###

Test system: SF-539
ASSAY_METHOD_TEXT: NCI tumour cell line growth inhibition, 48 h
Calls of active or inactive are those of the source. Cut-off read from the data, not from the text of the source: active = GI50 up to about 1.1 µM and inactive = higher.
Respond with a class label; see active, inactive

What call does the record list for C=C1CC(OC)(C(O)C(=O)N[C@H]2OCO[C@H]3C2O[C@H](C[C@H](O)COC)C(C)(C)C3OC)O[C@H](C)[C@@H]1C (stereo partly specified) ?
active

What call does the record list for CO[C@@H]1C[C@H](OC(N)=O)[C@@H]2C=C[C@@H]3/C=C(C)/C=C/[C@@H](C)[C@H](/C(C)=C/[C@@H](C)NC(C)=O)OC(=O)/C=C/C=C(C)\C=C\[C@]3(C)[C@@H]2C1 [SUPERSTOLIDE B] ?
active

What call does the record list for N#CCCSC1SC(=C2SC3=C(SCCS3)S2)SC1SCCC#N (stereo unspecified) ?
inactive

What call does the record list for "O=C(O)c1cscc1Cc1cccs1" ?
inactive

What call does the record list for "Brc1ccc(/N=N/N2CCCCC2)cc1" ?
inactive

What call does the record list for "COc1cc(Nc2cc(Cl)cc(Cl)c2)nc(N)n1" ?
inactive

###

System: HCT-116
ASSAY_METHOD_TEXT: NCI tumour cell line growth inhibition, 48 h
Active and inactive are the calls of the source. Cut-off read from the data, not from the text of the source: active = GI50 up to about 1.1 µM and inactive = higher.
Respond with a class label; see 1 for active, -1 for inactive

What call does the record list for CC(C)N(C(=O)C12C3C4C5(C#N)C3C1(C#N)C5C42C#N)C(C)C (stereo unspecified) ?
-1

What call does the record list for Cc1ccc(C)c(C2NC(=O)c3ccccc3N2)c1 (stereo unspecified) ?
1

###

System: OVCAR-5
ASSAY_METHOD_TEXT: NCI tumour cell line growth inhibition, 48 h
Activity calls are given as the source filed them. Rule as the data show it: active = GI50 up to about 1.1 µM and inactive = higher.
Respond with a class label; see Y (active), N (inactive)

Worked cases, answers included:
>>> group("O=C1c2ccccc2CC1C1(O)C(=O)Nc2c(Cl)cc(Cl)cc21 (configuration not stated)")
"N"
>>> group("C=CCNC(=S)N1c2ccccc2NC(=O)CC1C (configuration not stated)")
"N"
>>> group("O=C1/C(=C/c2ccccc2)CN(C(=O)Oc2ccc(Cl)cc2)C/C1=C\\c1ccccc1")
"N"
>>> group("Nc1nc(=O)c(/N=N/c2ccc([As](=O)(O)O)cc2)c(N)[nH]1")
"N"
>>> group("N#CCCSC1SC(=C2SC3=C(SCCS3)S2)SC1SCCC#N (configuration not stated)")
"N"

What call does the record list for CC(=O)N(CN1C(=O)CCC1C(=O)O)c1ccccc1Cl (configuration not stated) ?
N

What call does the record list for "COP(=O)(Cc1ccccc1)Cc1ccccc1" ?
N

What call does the record list for "CC(=O)Nc1ccccc1S(=O)(=O)c1c(-c2c(C)c(Cl)c(C)c(Cl)c2C)noc1C" ?
N

What call does the record list for "Cc1cc(NS(=O)(=O)c2ccc(NC(=O)c3cccc4cc5ccccc5nc34)cc2)no1" ?
N

What call does the record list for "CC1=C(O)C(=O)[C@@H]2O[C@@H]2C1=O" ?
N

What call does the record list for O=C1C(Cl)N(c2cccc([N+](=O)[O-])c2)C1c1c[nH]c2ccccc12 (configuration not stated) ?
N

###

Test system: SK-MEL-2
ASSAY_METHOD_TEXT: NCI tumour cell line growth inhibition, 48 h
Activity calls are given as the source filed them. No stated cut-off is given here; in the data, active = GI50 up to about 1.1 µM and inactive = higher.
Respond with a class label; see active, inactive

What call does the record list for "CCOC(=O)/C(=C/c1ccc(OC)c(OC)c1)C(=O)c1ccccc1" ?
inactive

What call does the record list for "CCOC(=O)NNC(=O)NCc1cccc(CNC(=O)NNC(=O)OCC)c1" ?
inactive

What call does the record list for Cc1c(-c2ccc(-c3ccccc3F)cc2)nc2ccc(F)cc2c1C(=O)O [BREQUINAR SODIUM] ?
inactive

What call does the record list for "CC1=C(C(=O)Nc2ccccc2)C2(CCCCC2)C(C#N)=C(SCC(=O)Nc2ccc(Br)cc2)N1" ?
inactive

What call does the record list for "Cc1c2cnccc2c(C)c2c1c1ccccc1n2CCCN" ?
active

What call does the record list for "Cc1cc(S(=O)(=O)Nc2nc3ccccc3nc2-c2cccc([N+](=O)[O-])c2)c(S)cc1Cl" ?
inactive

###

System: SK-MEL-28
ASSAY_METHOD_TEXT: NCI tumour cell line growth inhibition, 48 h
The source made the active and inactive calls. No stated cut-off is given here; in the data, active = GI50 up to about 1.1 µM and inactive = higher.
RECORDED_METRIC: GI50

Some compounds with recorded GI50:
>>> measured_value("CC1OC(OC2C(O[C@@H]3C[C@@H]4CC[C@@H]5[C@H](CC[C@]6(C)[C@@H]7[C@H](C[C@@H]56)O[C@]5(CC[C@@H](C)CO5)[C@H]7C)[C@@]4(C)C[C@H]3O)OC(CO)C(OC3OC(CO)C(O)C(O)C3O)C2O)C(O)C(O)C1O (some centres undefined)")
"1.75 µM (inactive)"
>>> measured_value("CC1(C(=O)O)CCOc2ccccc21 (centres undefined)")
"> 100 µM (inactive)"
>>> measured_value("CC1=CC(=O)c2ccc(C)cc2C1=O [CHIMAPHILIN]")
"6.82 µM (inactive)"
>>> measured_value("Cc1ccc(C[N+](C)(C)N)cc1C")
"> 10 µM (inactive)"
>>> measured_value("C#CCCCCC#CC1CCCC1C1=CC(=O)c2ccccc21 (centres undefined)")
"5.18 µM (inactive)"

Any idea what GI50 was measured for "O=C(CNc1cccc(Cl)c1)Nn1c(-c2ccccc2)nc2ccccc2c1=O" ?
8.02 µM (inactive)
